Tested on: kochia (Kochia scoparia)
Test: Test B pre-/postemergence plant response
Assay type: in vivo
Details: 125 g ai/ha, postemergence; 0 to 100 scale, 0 no effect, 100 complete control
Friendly reminder: Plant response rating, Kochia below 80 is met, at or above is not met.

{"columns": ["Compound", "Discrete Label"],
 "data": [
  ["Clc1cnc(Oc2ccccc2-c2cnccn2)nc1 [Compound 163]", "met"],
  ["Cc1c(-c2ccccc2Oc2ncc(Cl)cn2)noc1C(F)(F)F [Compound 167]", "met"],
  ["Cn1ncnc1-c1ccccc1Oc1ncc(Cl)cn1 [Compound 117]", "met"],
  ["CC(F)(F)c1cc(-c2ccccc2Oc2ncc(Cl)cn2)no1 [Compound 220]", "not met"],
  ["CCn1nc(C(F)(F)F)cc1-c1c(C#N)cccc1Oc1ncc(Cl)cn1 [Compound 89]", "met"],
  ["FC(F)c1cc(-c2ccccc2Oc2ncc(Br)cn2)on1 [Compound 212]", "not met"],
  ["FC(F)(F)COc1cc(-c2ccccc2Oc2ncc(Cl)cn2)on1 [Compound 176]", "not met"],
  ["FC(F)(F)c1cc(-c2c(Cl)cccc2Oc2ncc(Cl)cn2)no1 [Compound 169]", "not met"]
]}

###

Test system: corn (Zea mays)
Assay: Test B pre-/postemergence plant response
Type: in vivo
Details: Preemergence, 125 g ai/ha; 0 to 100 scale (0 no effect, 100 complete control)
Description: […]
Each record here notes measured Corn plant response rating.

{"columns": ["Compound", "Corn plant response rating"],
 "data": [
  ["Cc1noc(C)c1-c1c(C#N)cccc1Oc1ncc(Cl)cn1 [Compound 134]", 20],
  ["Clc1ccc(-c2c(Br)cccc2Oc2ncc(Cl)cn2)nc1 [Compound 135]", 0],
  ["O=[N+]([O-])c1cc(Cl)cnc1-c1ccccc1Oc1ncc(Cl)cn1 [Compound 201]", 0],
  ["Clc1cnc(Oc2ccccc2-c2nccs2)nc1 [Compound 199]", 0],
  ["N#Cc1cccc(Oc2ncc(F)cn2)c1-c1ccc(Cl)cn1 [Compound 207]", 0]
]}

###

Tested on: chickweed (common chickweed, Stellaria media)
Assay: Test D postemergence plant response
Type: in vivo
Details: 16 g ai/ha
Measurement Name: Plant response rating (scale 0 to 100), Chickweed

{"columns": ["Smiles", "Experimental System", "Number"],
 "data": [
  ["FC(F)c1cc(-c2c(Cl)cccc2Oc2ncc(Cl)cn2)no1", "chickweed (common chickweed, Stellaria media)", 70],
  ["N#Cc1cccc(Oc2ncc(Cl)cn2)c1-c1cc(C(F)F)on1", "chickweed (common chickweed, Stellaria media)", 60],
  ["FC(F)c1cc(-c2ccccc2Oc2ncc(Br)cn2)on1", "chickweed (common chickweed, Stellaria media)", 10],
  ["Cc1cc(-c2c(F)cccc2Oc2ncc(Cl)cn2)on1", "chickweed (common chickweed, Stellaria media)", 60],
  ["FCc1cc(-c2ccccc2Oc2ncc(Cl)cn2)on1", "chickweed (common chickweed, Stellaria media)", 10]
]}

###

Test system: waterhemp (common waterhemp, Amaranthus rudis)
Experiment: Test D pre-/postemergence plant response
Format: in vivo
Conditions: Preemergence; 16 g ai/ha; scale 0 to 100 (0 no effect, 100 complete control)
// Plant response rating, Waterhemp lookup, one value per entry

{"columns": ["Smiles", "Experimental System", "Plant response rating, Waterhemp"],
 "data": [
  ["FC(F)c1cc(-c2c(Cl)cccc2Oc2ncc(Cl)cn2)no1", "waterhemp (common waterhemp, Amaranthus rudis)", 75],
  ["Cc1cc(-c2ccccc2Oc2ncc(Cl)cn2)on1", "waterhemp (common waterhemp, Amaranthus rudis)", 100],
  ["COc1cccc(Oc2ncc(Cl)cn2)c1-c1cc(C(F)(F)F)no1", "waterhemp (common waterhemp, Amaranthus rudis)", 100]
]}

###

Tested on: johnsongrass (Sorghum halepense)
Experiment: Test D pre-/postemergence plant response
Assay type: in vivo
Details: Sorghum halepense, pre-emergence; Preemergence; 62 g ai/ha; scale 0 to 100 (0 no effect, 100 complete control); read-out: Plant response rating, Johnsongrass

{"columns": ["Compound", "pest or weed control at 62 g/ha, %"],
 "data": [
  ["Fc1cccc(Oc2ncc(Cl)cn2)c1-c1cc(C(F)(F)F)on1 [Compound 168]", 85],
  ["Fc1cccc(Oc2ncc(Br)cn2)c1-c1cc(C(F)F)no1 [Compound 145]", 90],
  ["Fc1cccc(Oc2ncc(Cl)cn2)c1-c1cc(C(F)F)no1 [Compound 144]", 100],
  ["FCc1cc(-c2ccccc2Oc2ncc(Cl)cn2)no1 [Compound 32]", 85]
]}

###

Below, each entry is listed with its recorded pest or weed control at 31 g/ha.
Test system: kochia (Kochia scoparia)
Assay: Test D postemergence plant response
Format: in vivo
Settings: Bassia scoparia, post-emergence, 31 g ai/ha, scale 0 to 100 (0 no effect, 100 complete control), read-out: Kochia plant response rating

{"columns": ["Smiles", "pest or weed control at 31 g/ha / %"],
 "data": [
  ["Fc1cccc(Oc2ncc(Cl)cn2)c1-c1cc(C(F)F)no1", 100],
  ["Fc1cccc(Oc2ncc(Cl)cn2)c1-c1cc(C(F)F)on1", 100],
  ["FC(F)(F)c1cc(-c2ccccc2Oc2ncc(Cl)cn2)on1", 95],
  ["FC(F)(F)c1cc(-c2ccccc2Oc2ncc(Cl)cn2)no1", 100],
  ["FC(F)c1cc(-c2ccccc2Oc2ncc(Cl)cn2)on1", 100]
]}

###

Test system: johnsongrass (Sorghum halepense)
Test: Test D pre-/postemergence plant response
Format: in vivo
Settings: Sorghum halepense, post-emergence; Postemergence, 62 g ai/ha; scale 0 to 100, 0 no effect, 100 complete control; read-out: Plant response rating, Johnsongrass

{"columns": ["Molecule", "pest or weed control at 62 g/ha (%)"],
 "data": [
  ["FC(F)(F)c1cc(-c2ccccc2Oc2ncc(Cl)cn2)no1 [Compound 200]", 45],
  ["FC(F)c1cc(-c2ccccc2Oc2ncc(Br)cn2)no1 [Compound 62]", 25],
  ["Fc1cccc(Oc2ncc(Br)cn2)c1-c1cc(C(F)F)no1 [Compound 145]", 5],
  ["Fc1cccc(Oc2ncc(Cl)cn2)c1-c1cc(C(F)F)no1 [Compound 144]", 10],
  ["FC(F)c1cc(-c2ccccc2Oc2ncc(Cl)cn2)on1 [Compound 53]", 5]
]}

###

# Lookup of reported pest or weed control at 125 g/ha keyed by entry
Test system: velvetleaf (Abutilon theophrasti)
Assay: Test B pre-/postemergence plant response
Assay type: in vivo
Details: Abutilon theophrasti, pre-emergence, 240 h; Preemergence, 125 g ai/ha; 0 to 100 scale where 0 is no effect and 100 is complete control; read-out: Plant response rating, Velvetleaf
Measurement Name: pest or weed control at 125 g/ha (%)

{"columns": ["Smiles", "Experimental System", "Measurement Unit", "Number"],
 "data": [
  ["Cc1ccc(Oc2ncc(Cl)cn2)c(-c2ccnc(C(F)(F)F)c2)c1", "velvetleaf (Abutilon theophrasti)", "%", 0],
  ["FC(F)c1cc(-c2ccccc2Oc2ncc(Br)cn2)no1", "velvetleaf (Abutilon theophrasti)", "%", 90],
  ["FC(F)(F)Oc1ccc(-c2ccccc2Oc2ncc(Cl)cn2)cc1", "velvetleaf (Abutilon theophrasti)", "%", 50],
  ["Clc1ccc(-c2c(Cl)cccc2Oc2ncc(Cl)cn2)nc1", "velvetleaf (Abutilon theophrasti)", "%", 10]
]}

###

Test system: lambsquarters (Chenopodium album)
Experiment: Test D pre-/postemergence plant response
Assay type: in vivo
Conditions: Postemergence, 62 g ai/ha; scale 0 to 100, 0 no effect, 100 complete control
Below, each entry is listed with its recorded Plant response rating, Lambsquarters.
Measurement Name: Plant response rating, Lambsquarters

{"columns": ["Smiles", "Experimental System", "Measurement Name", "Number"],
 "data": [
  ["FCc1cc(-c2c(F)cccc2Oc2ncc(Cl)cn2)no1", "lambsquarters (Chenopodium album)", "Plant response rating, Lambsquarters", 70],
  ["Cc1cc(-c2ccccc2Oc2ncc(Cl)cn2)no1", "lambsquarters (Chenopodium album)", "Plant response rating, Lambsquarters", 55],
  ["Fc1ccc(Oc2ncc(Cl)cn2)c(-c2cc(C(F)F)on2)c1Cl", "lambsquarters (Chenopodium album)", "Plant response rating, Lambsquarters", 90]
]}

###

System: blackgrass (Alopecurus myosuroides)
Experiment: Test D pre-/postemergence plant response
Format: in vivo
Conditions: Postemergence, 16 g ai/ha
Measurement Name: Plant response rating (scale 0 to 100), Blackgrass

{"columns": ["Molecule", "Number"],
 "data": [
  ["Clc1cnc(Oc2ccccc2-c2cc(C3CC3)on2)nc1 [Compound 183]", 0],
  ["FCc1cc(-c2ccccc2Oc2ncc(Cl)cn2)on1 [Compound 224]", 0],
  ["Cc1cc(-c2c(F)cccc2Oc2ncc(Cl)cn2)on1 [Compound 229]", 0],
  ["Clc1cnc(Oc2ccccc2-c2ccon2)nc1 [Compound 185]", 0],
  ["Fc1cccc(Oc2ncc(Cl)cn2)c1-c1cc(C(F)(F)F)no1 [Compound 228]", 15]
]}
